Quick list: Mean percentage of T cells positive for GFP expression per entry.
# Test system: AAVS1
# Test Description: GFP insertion at AAVS1 in T cells with SpyCas9 RNP and gapped AAV templates, flow cytometry (Example 6)
# Type: cell-based, human
# Protocol Conditions: Donor 1; Template A; day 7 post-editing
Strand notation (5' to 3'): a small letter for the sugar, then the base; units joined by * are phosphorothioate-linked, units joined directly phosphodiester-linked; [ ] holds rarer units or linkages, { } end groups; capitals alone tell only the bases. m = 2'-O-methyl; r = 2'-OH (RNA)
Quantity Measured: Mean percentage of T cells positive for GFP expression (%)

{"Molecule": "G013563: AAVS1 SpyCas9 guide RNA, guide sequence SEQ ID NO: 260, chr19:55115835-55115855 (nucleic acid) guide: mA*mU*mA*rUrArArGrGrUrGrGrUrCrCrCrArGrCrUrCrGrUrUrUrUrArGrAmGmCmUmAmGmAmAmAmUmAmGmCrArArGrUrUrArArArArUrArArGrGrCrUrArGrUrCrCrGrUrUrArUrCrAmAmCmUmUmGmAmAmAmAmAmGmUmGmGmCmAmCmCmGmAmGmUmCmGmGmUmGmCmU*mU*mU*mU", "Unit Info": "%", "Recorded Measurement": 73.15}
{"Molecule": "G013582: AAVS1 SpyCas9 guide RNA, guide sequence SEQ ID NO: 263, chr19:55115951-55115971 (nucleic acid) guide: mC*mC*mU*rGrUrCrArUrGrGrCrArUrCrUrUrCrCrArGrGrUrUrUrUrArGrAmGmCmUmAmGmAmAmAmUmAmGmCrArArGrUrUrArArArArUrArArGrGrCrUrArGrUrCrCrGrUrUrArUrCrAmAmCmUmUmGmAmAmAmAmAmGmUmGmGmCmAmCmCmGmAmGmUmCmGmGmUmGmCmU*mU*mU*mU", "Unit Info": "%", "Recorded Measurement": 66.30}
{"Molecule": "G013564: AAVS1 SpyCas9 guide RNA, guide sequence SEQ ID NO: 261, chr19:55115836-55115856 (nucleic acid) guide: mU*mA*mU*rArArGrGrUrGrGrUrCrCrCrArGrCrUrCrGrGrUrUrUrUrArGrAmGmCmUmAmGmAmAmAmUmAmGmCrArArGrUrUrArArArArUrArArGrGrCrUrArGrUrCrCrGrUrUrArUrCrAmAmCmUmUmGmAmAmAmAmAmGmUmGmGmCmAmCmCmGmAmGmUmCmGmGmUmGmCmU*mU*mU*mU", "Unit Info": "%", "Recorded Measurement": 65.95}
{"Molecule": "G013584: AAVS1 SpyCas9 guide RNA, guide sequence SEQ ID NO: 264, chr19:55115949-55115969 (nucleic acid) guide: mC*mC*mC*rUrGrGrArArGrArUrGrCrCrArUrGrArCrArGrUrUrUrUrArGrAmGmCmUmAmGmAmAmAmUmAmGmCrArArGrUrUrArArArArUrArArGrGrCrUrArGrUrCrCrGrUrUrArUrCrAmAmCmUmUmGmAmAmAmAmAmGmUmGmGmCmAmCmCmGmAmGmUmCmGmGmUmGmCmU*mU*mU*mU", "Unit Info": "%", "Recorded Measurement": 69.15}
{"Molecule": "G000562: AAVS1 SpyCas9 guide RNA, guide sequence SEQ ID NO: 251, chr19:55115695-55115715 (nucleic acid) guide: mC*mC*mA*rArUrArUrCrArGrGrArGrArCrUrArGrGrArGrUrUrUrUrArGrAmGmCmUmAmGmAmAmAmUmAmGmCrArArGrUrUrArArArArUrArArGrGrCrUrArGrUrCrCrGrUrUrArUrCrAmAmCmUmUmGmAmAmAmAmAmGmUmGmGmCmAmCmCmGmAmGmUmCmGmGmUmGmCmU*mU*mU*mU", "Unit Info": "%", "Recorded Measurement": 30.60}
{"Molecule": "G013562: AAVS1 SpyCas9 guide RNA, guide sequence SEQ ID NO: 259, chr19:55115834-55115854 (nucleic acid) guide: mA*mA*mU*rArUrArArGrGrUrGrGrUrCrCrCrArGrCrUrGrUrUrUrUrArGrAmGmCmUmAmGmAmAmAmUmAmGmCrArArGrUrUrArArArArUrArArGrGrCrUrArGrUrCrCrGrUrUrArUrCrAmAmCmUmUmGmAmAmAmAmAmGmUmGmGmCmAmCmCmGmAmGmUmCmGmGmUmGmCmU*mU*mU*mU", "Unit Info": "%", "Recorded Measurement": 65.75}
